Sourced from patent US20260167622A1

Target system: KRAS G13D protein in DLD-1 cells (Homo sapiens, UniProt P01116, G13D)
Construct: endogenous in cells; host or cells: DLD-1
Sequence (P01116 1-188 isoform P01116-2 G13D): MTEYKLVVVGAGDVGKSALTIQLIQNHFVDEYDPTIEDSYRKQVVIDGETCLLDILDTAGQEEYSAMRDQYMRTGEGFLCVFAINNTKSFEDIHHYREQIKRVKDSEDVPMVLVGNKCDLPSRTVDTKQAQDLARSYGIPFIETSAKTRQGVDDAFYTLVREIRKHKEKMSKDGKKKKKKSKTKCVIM
Assay method text: KRAS degradation assay (Western Blot) in DLD-1 cells
Assay type: cell-based
Setup conditions: 24 h
Documented DC50 across a set of compounds
Measurement name: DC50 (nM)

Compound	Measurement name	Observed
C#Cc1c(F)ccc2cc(O)cc(-c3ncc4c(N5CCC[C@@](C)(O)C5)nc(OC[C@H](C)CN5CCN(CC6CCC7(CC6)CCN(C(=O)c6ccc(C)c(N8CCC(=O)NC8=O)c6)CC7)CC5)nc4c3F)c12 [Example 47]	DC50	2.05
[2H]C([2H])([2H])Oc1ccc(C(=O)N2CCC3(CCC(CN4CCN(C[C@@H](C)COc5nc(N6CCC[C@@](C)(O)C6)c6cnc(-c7cc(O)cc8ccc(F)c(C#C)c78)c(F)c6n5)CC4)CC3)CC2)cc1N1CCC(=O)NC1=O [Example 164]	DC50	4.39
[2H]C([2H])([2H])Oc1ccc(C(=O)N2CCC3(CCC(CN4CCN(CC5(COc6nc(N7CCC[C@@](C)(O)C7)c7cnc(-c8cc(O)cc9ccc(F)c(C#C)c89)c(F)c7n6)CC5)CC4)CC3)CC2)cc1N1CCC(=O)NC1=O [Example 170]	DC50	1.96
